// reported DC50 per item
- Target under test: GSPT1 (Homo sapiens (Human), UniProt P15170+Q96SW2)
- Sequence (P15170 whole entry): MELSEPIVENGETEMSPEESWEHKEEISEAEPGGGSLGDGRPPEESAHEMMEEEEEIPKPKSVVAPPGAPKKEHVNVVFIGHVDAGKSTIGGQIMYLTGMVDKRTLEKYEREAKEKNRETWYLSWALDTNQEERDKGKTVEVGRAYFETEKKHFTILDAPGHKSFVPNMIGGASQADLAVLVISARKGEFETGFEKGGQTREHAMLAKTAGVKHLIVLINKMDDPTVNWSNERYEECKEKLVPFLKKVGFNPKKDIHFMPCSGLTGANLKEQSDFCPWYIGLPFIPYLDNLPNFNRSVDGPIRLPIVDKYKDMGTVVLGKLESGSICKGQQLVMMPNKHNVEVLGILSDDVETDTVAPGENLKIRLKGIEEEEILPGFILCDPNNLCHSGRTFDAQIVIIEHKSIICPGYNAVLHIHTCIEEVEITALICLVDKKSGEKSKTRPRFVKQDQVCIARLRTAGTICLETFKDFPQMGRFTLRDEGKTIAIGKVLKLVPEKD
- Sequence (Q96SW2 whole entry): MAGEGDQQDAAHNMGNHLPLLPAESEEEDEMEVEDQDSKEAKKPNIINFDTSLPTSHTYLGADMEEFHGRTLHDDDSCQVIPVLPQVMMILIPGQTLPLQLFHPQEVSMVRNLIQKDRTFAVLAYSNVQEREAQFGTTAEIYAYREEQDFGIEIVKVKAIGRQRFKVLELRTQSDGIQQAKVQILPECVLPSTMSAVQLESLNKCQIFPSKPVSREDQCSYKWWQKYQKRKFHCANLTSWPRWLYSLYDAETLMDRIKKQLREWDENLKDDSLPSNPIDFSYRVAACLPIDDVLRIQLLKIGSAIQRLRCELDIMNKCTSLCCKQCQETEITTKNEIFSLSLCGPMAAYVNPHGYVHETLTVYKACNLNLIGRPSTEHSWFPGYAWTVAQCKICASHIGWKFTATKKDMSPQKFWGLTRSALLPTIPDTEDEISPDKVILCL
- Sequence (Q16531 2-1140 partner): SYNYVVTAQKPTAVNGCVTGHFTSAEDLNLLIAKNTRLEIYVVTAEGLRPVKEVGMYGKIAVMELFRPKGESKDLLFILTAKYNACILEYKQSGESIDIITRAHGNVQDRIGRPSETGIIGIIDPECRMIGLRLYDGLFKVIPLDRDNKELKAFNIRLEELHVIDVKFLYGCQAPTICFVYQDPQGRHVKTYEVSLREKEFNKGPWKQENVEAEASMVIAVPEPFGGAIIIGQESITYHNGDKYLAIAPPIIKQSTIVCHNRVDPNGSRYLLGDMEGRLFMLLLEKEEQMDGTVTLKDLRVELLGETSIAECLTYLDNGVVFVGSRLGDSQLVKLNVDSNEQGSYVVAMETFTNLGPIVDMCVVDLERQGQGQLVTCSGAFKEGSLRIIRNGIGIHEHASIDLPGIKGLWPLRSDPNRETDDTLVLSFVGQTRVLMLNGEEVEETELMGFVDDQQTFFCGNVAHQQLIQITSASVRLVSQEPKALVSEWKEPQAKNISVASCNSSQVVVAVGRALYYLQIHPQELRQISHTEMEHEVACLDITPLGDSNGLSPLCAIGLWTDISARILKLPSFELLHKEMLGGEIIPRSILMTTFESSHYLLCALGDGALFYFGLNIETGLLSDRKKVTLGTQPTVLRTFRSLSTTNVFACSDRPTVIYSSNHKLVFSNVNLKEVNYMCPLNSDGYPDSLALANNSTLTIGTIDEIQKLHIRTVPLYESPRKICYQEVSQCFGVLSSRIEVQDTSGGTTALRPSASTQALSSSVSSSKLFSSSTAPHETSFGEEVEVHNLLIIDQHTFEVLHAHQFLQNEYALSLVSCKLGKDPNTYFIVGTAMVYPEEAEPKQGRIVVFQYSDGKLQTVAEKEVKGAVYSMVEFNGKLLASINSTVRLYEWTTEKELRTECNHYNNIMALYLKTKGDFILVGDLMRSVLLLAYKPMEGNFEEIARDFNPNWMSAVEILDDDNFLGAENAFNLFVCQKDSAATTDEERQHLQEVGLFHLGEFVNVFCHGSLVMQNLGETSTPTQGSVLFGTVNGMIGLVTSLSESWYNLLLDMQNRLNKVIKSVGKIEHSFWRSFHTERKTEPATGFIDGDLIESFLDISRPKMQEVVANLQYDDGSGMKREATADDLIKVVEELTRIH
- Assay info: immunofluorescence assay for GSPT1 degradation in CAL-51 cells (Example 4)
- Format: cell-based
- Setup conditions: 6 hours, read-out: Activity for GSPT1 degradation, Code (DC50)
- Experimental: The representative compounds were tested in an immunofluorescence assay for their activity to bind to degrade GSPT1. […] Primary antibody (human GSPT1, Sigma HPA052488) was diluted in blocking buffer (dil.1/300, 35 μl/well) and incubated with the cells overnight at 4° C. […] Fluorescence intensity of Alexa-Fluor 488 (GSPT1), Alexa-Fluor 647 (Actin) and DAPI (Nucleus) were measured. […] The Alexa-Fluor 488 (GSPT1) signal intensity in each cell was finally measured, in order to obtain a Mean intensity per cell. […]

| Compound | Target under test | DC50 |
| --- | --- | --- |
| O=C1CCC(N2Cc3ccc(COC(=O)Nc4ccc(N5CCCCC5)nc4)cc3C2=O)C(=O)N1 (stereo not drawn) | GSPT1 (Homo sapiens (Human), UniProt P15170+Q96SW2) | < 30 nM |
| O=C1CCC(N2Cc3ccc(COC(=O)Nc4cnc(N5CCCCC5)cn4)cc3C2=O)C(=O)N1 (stereo not drawn) | GSPT1 (Homo sapiens (Human), UniProt P15170+Q96SW2) | 30 to 300 nM |
| CC1(c2ccc(NC(=O)OCc3ccc4c(c3)C(=O)N(C3CCC(=O)NC3=O)C4)cn2)CC1 (stereo not drawn) | GSPT1 (Homo sapiens (Human), UniProt P15170+Q96SW2) | < 30 nM |
| O=C1CCC(N2Cc3ccc(COC(=O)Nc4ccc(N5CCOCC5)nc4)cc3C2=O)C(=O)N1 (stereo not drawn) | GSPT1 (Homo sapiens (Human), UniProt P15170+Q96SW2) | 30 to 300 nM |
| C[C@H]1CCCN1c1ccc(NC(=O)OCc2ccc3c(c2)C(=O)N(C2CCC(=O)NC2=O)C3)cn1 (stereo partly drawn) | GSPT1 (Homo sapiens (Human), UniProt P15170+Q96SW2) | < 30 nM |

Requested field: DC50. Item: O=C1CCC(N2Cc3ccc(COC(=O)Nc4ccnc(-c5ccccc5)c4)cc3C2=O)C(=O)N1 (stereo not drawn) > 300 nM

For the compound Cc1cc(F)cc(NC(=O)OCc2ccc3c(c2)C(=O)N(C2CCC(=O)NC2=O)C3)c1 (stereo not drawn) , what DC50 is on record? 30 to 300 nM

These measurements were taken from patent US11912682B2.
